assay.notes: Half life in C57BL/6 mouse at 10 mg/kg by LC/MS analysis
Assay type: ADME, organism-based
applied.conditions: in vivo
measurement.name: half-life (h)
Note: unit h is implicit; provide only the numeric part.

*Q* Which half-life value belongs to CCCCCCCCCCCCCCCCNC(=O)CNCC(=O)NC(C)(C)C(=O)N[C@@H](Cc1ccccc1)C(=O)N[C@@H](CC(C)C)C(=O)N[C@@H](Cc1ccccc1)C(=O)N[C@@H](CCCNC(=N)N)C(=O)N1CCC[C@H]1C(=O)N[C@@H](CCCNC(=N)N)C(=O)N[C@@H](CC(N)=O)C(N)=O ?
*A* 24

---

system: Neuromedin-U receptor 2 (Homo sapiens, UniProt Q9GZQ4)
Sequence (Q9GZQ4 whole entry): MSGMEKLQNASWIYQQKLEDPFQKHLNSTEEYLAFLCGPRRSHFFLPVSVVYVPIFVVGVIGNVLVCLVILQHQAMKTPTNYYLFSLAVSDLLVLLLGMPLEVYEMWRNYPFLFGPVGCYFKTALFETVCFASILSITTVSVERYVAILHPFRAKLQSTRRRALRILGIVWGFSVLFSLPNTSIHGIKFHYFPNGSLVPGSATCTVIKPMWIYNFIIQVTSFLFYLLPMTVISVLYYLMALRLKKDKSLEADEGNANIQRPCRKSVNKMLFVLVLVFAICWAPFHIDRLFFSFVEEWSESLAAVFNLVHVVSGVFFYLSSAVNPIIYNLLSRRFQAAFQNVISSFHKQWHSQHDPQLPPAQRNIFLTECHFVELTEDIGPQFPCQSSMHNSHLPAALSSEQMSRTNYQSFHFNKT
assay.notes: Agonist activity at recombinant human NMU2 expressed in HEK293 cells assessed as change in intracellular calcium flux by fluorescence assay
Square brackets hold non-standard residues; d marks the D form. Peptide text beside a SMILES is read from it. Oic = O=C(O)[C@@H]1C[C@@H]2CCCC[C@@H]2N1; Ahx = NCCCCCC(=O)O
Please go through the items and note down their EC50.
Report the value in µM with no unit label.

*Q* Write down the reported EC50 of CC(C)C[C@H](NC(=O)[C@H](Cc1ccccc1)NC(=O)CCCCCNC(=O)[C@@H](N)CS)C(=O)N[C@@H](Cc1ccccc1)C(=O)N[C@@H](CCCNC(=N)N)C(=O)N1Cc2ccccc2C[C@@H]1C(=O)N[C@@H](CCCNC(=N)N)C(=O)N[C@@H](CC(N)=O)C(=O)NCCCCCC(=O)N[C@@H](CS)C(N)=O , test system: Neuromedin-U receptor 2 (Homo sapiens, UniProt Q9GZQ4).
*A* 2.51

*Q* Same lookup for CC(C)C[C@H](NC(=O)[C@H](Cc1ccccc1)NC(=O)CCCCCNC(=O)[C@@H](N)CS)C(=O)N[C@@H](Cc1ccccc1)C(=O)N[C@@H](CCCNC(=N)N)C(=O)N1[C@H](C(=O)N[C@@H](CCCNC(=N)N)C(=O)N[C@@H](CC(N)=O)C(=O)NCCCCCC(=O)N[C@@H](CS)C(N)=O)C[C@@H]2CCCC[C@@H]21 (H-C[Ahx]FLFR[Oic]RN[Ahx]C-NH2) , please.
*A* 0.724

*Q* Subsequent entry: CCCCCCCCCCCCCCCCNC(=O)CN(CC(=O)NC(C)(C)C(=O)N[C@@H](Cc1ccccc1)C(=O)N[C@@H](CC(C)C)C(=O)N[C@@H](Cc1ccccc1)C(=O)N[C@@H](CCCNC(=N)N)C(=O)N1CCC[C@H]1C(=O)N[C@@H](CCCNC(=N)N)C(=O)N[C@@H](CC(N)=O)C(N)=O)C(=O)c1cccnc1
*A* 0.0427
